Data provenance: the supplement of paper PMC10567573

B1: SMTNL2 (parent)
chain: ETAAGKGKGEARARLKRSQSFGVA

- Variants of: B1
- TEST_SUMMARY: protein stability index of a GFP-peptide fusion (GPS, HEK-293T) (PSI 1-6); higher = more stable;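 further: lentivirally expressed fusions sorted by FACS into six bins by GFP to DsRed ratio, PSI derived from sequencing read proportions per bin multiplied by bin number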
- STATED_CONDITIONS: c terminus: a fixed tail appended
OUTCOME_MEASURE: protein stability index
Answers are plain numbers.

[[record]]
mutant_label = "R14F"
observed = 4.18

[[record]]
mutant_label = "G9C"
observed = 4.21

[[record]]
mutant_label = "K6E"
observed = 5.05


Could you tell me protein stability index for each of these variants? They are listed below.
1. G22E
2. E1W
3. T2M
4. R12V
5. S20I

[out]
1. 5.65
2. 3.63
3. 4.65
4. 4.83
5. 3.5

Could you tell me protein stability index for each of these variants? They are listed below.
1. Q19A
2. F21G
3. A13W
4. S20M
5. R12D

[out]
1: 4.35; 2: 4.08; 3: 3.67; 4: 4.3; 5: 4.79

Just so you know, measured protein stability index for "S20E" came out at 4.87
